Would you mind telling me the reported photoluminescence quantum yield of each entry?
TEST_PROTOCOL: photoluminescence quantum yield (fraction); solvent given as SMILES
MEASUREMENT_CONTEXT: in OCCO
I only need the number, thanks.

Fill in the blank: the reported photoluminescence quantum yield of `CCN1C(=CC=Cc2n(CC)c3cc(Cl)c(Cl)cc3[n+]2CC)N(CC)c2cc(Cl)c(Cl)cc21` is ____. 0.075

Fill in the blank: the reported photoluminescence quantum yield of `O=c1oc2ccccc2cc1-c1nc2ccccc2o1` is ____. 0.68

Fill in the blank: the reported photoluminescence quantum yield of `Cc1nn(-c2ccccc2)c(C2=NN(c3ccc(Br)cc3)[C@@H](c3ccccc3)[C@@H]2c2ccccc2)c1C#N` is ____. 0.45

Fill in the blank: the reported photoluminescence quantum yield of `O=C1NC(=O)/C(=C\c2ccccc2O)S1` is ____. 0.115

Fill in the blank: the reported photoluminescence quantum yield of `CN(C)c1ccc(/C=C/C=C/c2nc3ccccc3s2)cc1` is ____. 0.0062

Fill in the blank: the reported photoluminescence quantum yield of O=C(O)C1=C/C(=C/C=[N+]2/c3cc(O)c(C[C@@H]4O[C@H](CO)[C@@H](O)C(O)[C@H]4O)cc3C[C@H]2C(=O)O)C[C@@H](C(=O)O)N1 (stereo partly specified) is ____. 0.0046

Value source: the Deep4Chem optical property database
